Assay: Intrinsic clearance in human liver microsomes at 1 uM by HPLC-MS/MS analysis
Type: ADME, microsome
Conditions: read-out: CLH
Catalogue of CLint scaled at 1 µM readings, one per entry.

smiles entry: Cc1ccc(Nc2nc(-c3cc(C(=O)Nc4ccccc4)no3)cs2)cc1
unit annotation: mL/min/kg
limit operator: =
CLint scaled at 1 µM: 17.8

smiles entry: CCOC(=O)c1cc(-c2csc(Nc3cc(Cl)cc(Cl)c3)n2)on1
unit annotation: mL/min/kg
limit operator: =
CLint scaled at 1 µM: 189

smiles entry: CCOC(=O)c1cc(-c2csc(Nc3ccc(C)cc3)n2)on1
unit annotation: mL/min/kg
limit operator: >
CLint scaled at 1 µM: 400

smiles entry: Cc1ccc(Nc2nc(-c3cc(C(=O)Nc4ccccn4)no3)cs2)cc1
unit annotation: mL/min/kg
limit operator: =
CLint scaled at 1 µM: 38.8

smiles entry: Cc1ccc(Nc2nc(-c3cc(C(=O)O)no3)cs2)cc1
unit annotation: mL/min/kg
limit operator: =
CLint scaled at 1 µM: 43.7

All figures here come from ChEMBL document CHEMBL4038332.
